assay: chemical genetic growth profiling, strain panel (AID 1159580);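 note: tested at 20 µM; growth read once vehicle control cultures reached saturation at 30 °C; 1 = growth at the plate median or of vehicle wells; lower values mean less growth of the strain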; conditions: S. cerevisiae deletion strains, growth OD, locus YIL066C, strain RNR3
Among all 5,500 compounds or so, about 2,000 (36%) were called active. Another 18% or so got no clear call; they are omitted. Cut-off read from the data, not from the text of the source: active = normalized growth mostly below about 0.91 (no sharp cut-off); inconclusive = no clear call, values can overlap the other calls; inactive = mostly above about 0.92. The list shows a part of the results.
Mark one answer only. Choices: label 1 (active), label 0 (inactive)

A selection of reference data follows.
O=C1CN(/N=C\c2ccc([N+](=O)[O-])o2)C(=O)N1
label 0
CCn1cc(C(=O)O)c(=O)c2cnc(N3CCCC3)nc21
label 0
O=C(O)c1cc(=O)c2c(OCC(O)COc3cccc4oc(C(=O)O)cc(=O)c34)cccc2o1
label 0
O=C1OCCN1/N=C\c1ccc([N+](=O)[O-])o1
label 0
NC(=O)c1cc[n+](CC2=C(C(=O)O)N3C(=O)C(NC(=O)C(c4ccccc4)S(=O)(=O)[O-])C3SC2)cc1 (stereo unspecified)
label 0

Test call, this compound: `CO[C@@H]1[C@@H](O[C@@H]2O[C@H](C)[C@@H](O[C@H]3C[C@@](C)(O)[C@H](O)[C@H](C)O3)[C@H](N(C)C)[C@H]2O)[C@@H](CC=O)C[C@@H](C)[C@@H](O[C@H]2CC[C@H](N(C)C)[C@@H](C)O2)/C=C/C=C/C[C@H](C)OC(=O)C[C@H]1O` label 0

Given CC(Cc1ccc(O)c(O)c1)(NN)C(=O)O (stereo unspecified) , state the outcome it received in this test. label 0

Identify the outcome logged in this assay for the compound shown: `COc1ccccc1-c1cc(=O)c2cccc(OC)c2o1` label 1

* * *

normalized growth by entry:
test: chemical genetic growth profiling, strain panel (AID 1159580);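 note: tested at 20 µM; growth read once vehicle control cultures reached saturation at 30 °C; 1 = growth at the plate median or of vehicle wells; lower values mean less growth of the strain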; conditions: S. cerevisiae deletion strains, growth OD, locus YNL175C, strain NOP13, stronger effect = lower value
Screen size: about 5,500 compounds; about 2,000 (36%) were called active. Not shown: some 18% with an inconclusive outcome. The list shows a part of the results.
A bare number is all that is needed in reply.

As a guide, the following entries are already answered.
c1ccc2c(c1)OCC(C1=NCCN1)O2 (configuration not stated)
1.02
COCC(=O)O[C@]1(CCN(C)CCCc2nc3ccccc3[nH]2)CCc2cc(F)ccc2[C@@H]1C(C)C
1.03
Cc1cn([C@H]2C[C@@H](N=[N+]=[N-])[C@@H](CO)O2)c(=O)[nH]c1=O
0.983
Cc1ccc(O)c(N=Nc2ccccc2)n1
0.985
NC1CCN(c2cccc(Cl)n2)CC1
0.991

Briefly, normalized growth measured for `CCn1cc(C(=O)O)c(=O)c2ccc(C)nc21` : 0.944

Entry CCC(C)N(C)C(=O)c1cc2ccccc2c(-c2ccccc2Cl)n1 (configuration not stated) — recorded normalized growth = 1

* * *

experiment: chemical genetic growth profiling, strain panel (AID 1159580);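 note: tested at 20 µM; growth read once vehicle control cultures reached saturation at 30 °C; 1 = growth at the plate median or of vehicle wells; lower values mean less growth of the strain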; settings: S. cerevisiae deletion strains, growth OD, locus YGL248W, strain PDE1, stronger effect = lower value
Hit rate of the full screen: of about 5,500 compounds, about 2,000 (36%) were called active. Not shown: some 18% with an inconclusive outcome. The list shows a part of the results.
Measured Attribute: normalized growth
Enter a number only.

Observe how each entry below is paired with its result.
Oc1cc(O)cc(/C=C/c2ccccc2)c1
0.957
CC(=O)O[C@H]1CC[C@@]2(C)C(=CCC3C2CC[C@@]2(C)C3CC[C@@H]2C(C)CCCC(C)C)C1 (stereo partly specified)
1.02
O=C1CN(/N=C\c2ccc([N+](=O)[O-])o2)C(=O)N1
1
COc1ccc(/C=C/c2cc(O)cc(O[C@@H]3O[C@H](CO)[C@@H](O)[C@H](O)[C@H]3O)c2)cc1O
1.01
O=C(O)CCCCC1SCC2NC(=O)NC21 (stereo unspecified)
1

In plain terms, CCC(CCC(C)C1CCC2C3CC=C4C[C@@H](OC(C)=O)CC[C@]4(C)C3CC[C@]12C)C(C)C (stereo partly specified) has a documented normalized growth of 0.982
